target_system: Sodium-dependent dopamine transporter (Homo sapiens)
Sequence (Q01959 whole entry): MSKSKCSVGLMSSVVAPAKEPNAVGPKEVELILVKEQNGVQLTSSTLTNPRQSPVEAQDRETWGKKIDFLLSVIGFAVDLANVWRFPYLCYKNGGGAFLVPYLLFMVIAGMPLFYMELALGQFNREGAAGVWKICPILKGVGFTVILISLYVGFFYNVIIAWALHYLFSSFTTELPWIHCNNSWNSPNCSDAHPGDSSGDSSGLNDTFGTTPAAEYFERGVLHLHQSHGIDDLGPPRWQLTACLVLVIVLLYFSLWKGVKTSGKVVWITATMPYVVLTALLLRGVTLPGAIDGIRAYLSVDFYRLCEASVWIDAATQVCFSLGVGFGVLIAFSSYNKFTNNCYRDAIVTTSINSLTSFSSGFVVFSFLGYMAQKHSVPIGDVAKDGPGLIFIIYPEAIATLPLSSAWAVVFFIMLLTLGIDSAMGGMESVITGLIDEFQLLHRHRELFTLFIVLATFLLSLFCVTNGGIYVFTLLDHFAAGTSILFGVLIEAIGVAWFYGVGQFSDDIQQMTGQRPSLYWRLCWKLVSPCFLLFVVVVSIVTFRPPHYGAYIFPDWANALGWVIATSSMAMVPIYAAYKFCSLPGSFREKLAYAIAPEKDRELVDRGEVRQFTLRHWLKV
observed_property: IC50 (nM)
Kindly provide the numeric value in nM only, without the unit symbol.

Field request: IC50 | item: COC(=O)[C@H]1[C@@H](c2ccc(C)cc2)C[C@@H]2CC[C@H]1N2CC#CCF
3
